From: patent US20250333496A1

Relative IC50 to Reference Polypeptide_29 reference
Molecular target: human IL-6 (mature hIL-6) (human, UniProt P05231 30-212)
Sequence (P05231 30-212): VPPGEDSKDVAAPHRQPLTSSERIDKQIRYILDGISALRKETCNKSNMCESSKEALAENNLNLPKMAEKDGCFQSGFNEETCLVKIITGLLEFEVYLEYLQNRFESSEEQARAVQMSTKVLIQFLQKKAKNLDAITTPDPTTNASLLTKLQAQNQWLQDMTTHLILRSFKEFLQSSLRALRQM
Test: cell-based or functional assay
Give the quantity in fold, number only.

Reference set, count: 5
[[record]]
binder = "Polypeptide_60 (VHH) VHH: EVQLVESGGGLVQPGGSLKLSCTTSGRRFSEYAVGWFRQAPGKEREFVADIGEQAENTWYAESVLGRFTISRDDAKNTVYLEMDSLKPEDTAVYYCAADKYGVGGNAQGYYDSWGQGTQVTVSS"
reading_unit = "fold"
result = 1.7

[[record]]
binder = "Polypeptide_61 (VHH) VHH: EVQLVESGGGLVQPGGSLKLSCTTSGRRFSEYAVGWFRQAPGKEREFVADIGEQAENTWYAESVLGRFTISRDDAKNTVYLEMDGLKPEDTAVYYCAADSYGVGGNAQGYYDSWGQGTQVTVSS"
reading_unit = "fold"
result = 1.6

[[record]]
binder = "Polypeptide_53 (VHH) VHH: EVQLVESGGGLVQPGGSLKLSCTTSGRRFSSYAVGWFRQAPGKEREFVADIGEQAENTWYAESVLGRFTISRDDAKNTVYLEMDGLKPEDTAVYYCAADKYGVGGNAQGYYDSWGQGTQVTVSS"
reading_unit = "fold"
result = 1.5

[[record]]
binder = "Polypeptide_49 (VHH) VHH: QVQLVESGGGLVQPGGSLKLSCTTSGRRFSEYAVGWFRQAPGKEREFVADIGEQAENTWYAESVLGRFTISRDDAKNTVYLEMDGLKPEDTAVYYCAADKYGVGGNAQGYYDSWGQGTQVTVSS"
reading_unit = "fold"
result = 1.5

[[record]]
binder = "Polypeptide_55 (VHH) VHH: EVQLVESGGGLVQPGGSLKLSCTTSGRRFSEYAVGWFRQAPGKEREFVADIGEQADNTWYAESVLGRFTISRDDAKNTVYLEMDGLKPEDTAVYYCAADKYGVGGNAQGYYDSWGQGTQVTVSS"
reading_unit = "fold"
result = 8.1


Requested read-out: Relative IC50 to Reference Polypeptide_29. Entry: Polypeptide_29 (VHH, VHH_1.6 with C-terminal His tag extension E1; also called [VHH_1.6]-E1) VHH: EVQLVESGGGLVQPGGSLKLSCTTSGRRFSEYAVGWFRQAPGKEREFVADIGEQAENTWYAESVLGRFTISRDDAKNTVYLEMDGLKPEDTAVYYCAADKYGVGGNAQGYYDSWGQGTQVTVSS
1

Returns the measured Relative IC50 to Reference Polypeptide_29 for the input binder. Input: Polypeptide_19 (VHH, VHH_1.11 with C-terminal His tag extension E1; also called [VHH_1.11]-E1) VHH: QLQLVESGGGWVQPGGSLKLSCTTSGRTFSSYAVGWFRQAPGKEREFVADIGENADNTWYAHSVKGRFTISRDNAKNTVYLQMNSLKPEDTAVYYCAADSYGVGGGAQGYYDSWGQGTQVTVSS
5.4

State the recorded Relative IC50 to Reference Polypeptide_29 for this entry: Polypeptide_59 (VHH) VHH: EVQLVESGGGLVQPGGSLKLSCTTSGRRFSEYAVGWFRQAPGKEREFVADIGEQAENTWYAESVLGRFTISRDDAKNTVYLEMNGLKPEDTAVYYCAADKYGVGGNAQGYYDSWGQGTQVTVSS
1.2
